Where do these numbers come from? They come from ChEMBL document CHEMBL1145628.

Measured pEC50 accompanies every entry in the list below.
- Subject Of Test: UniProt:Q8NER1
- Sequence (Q8NER1 whole entry): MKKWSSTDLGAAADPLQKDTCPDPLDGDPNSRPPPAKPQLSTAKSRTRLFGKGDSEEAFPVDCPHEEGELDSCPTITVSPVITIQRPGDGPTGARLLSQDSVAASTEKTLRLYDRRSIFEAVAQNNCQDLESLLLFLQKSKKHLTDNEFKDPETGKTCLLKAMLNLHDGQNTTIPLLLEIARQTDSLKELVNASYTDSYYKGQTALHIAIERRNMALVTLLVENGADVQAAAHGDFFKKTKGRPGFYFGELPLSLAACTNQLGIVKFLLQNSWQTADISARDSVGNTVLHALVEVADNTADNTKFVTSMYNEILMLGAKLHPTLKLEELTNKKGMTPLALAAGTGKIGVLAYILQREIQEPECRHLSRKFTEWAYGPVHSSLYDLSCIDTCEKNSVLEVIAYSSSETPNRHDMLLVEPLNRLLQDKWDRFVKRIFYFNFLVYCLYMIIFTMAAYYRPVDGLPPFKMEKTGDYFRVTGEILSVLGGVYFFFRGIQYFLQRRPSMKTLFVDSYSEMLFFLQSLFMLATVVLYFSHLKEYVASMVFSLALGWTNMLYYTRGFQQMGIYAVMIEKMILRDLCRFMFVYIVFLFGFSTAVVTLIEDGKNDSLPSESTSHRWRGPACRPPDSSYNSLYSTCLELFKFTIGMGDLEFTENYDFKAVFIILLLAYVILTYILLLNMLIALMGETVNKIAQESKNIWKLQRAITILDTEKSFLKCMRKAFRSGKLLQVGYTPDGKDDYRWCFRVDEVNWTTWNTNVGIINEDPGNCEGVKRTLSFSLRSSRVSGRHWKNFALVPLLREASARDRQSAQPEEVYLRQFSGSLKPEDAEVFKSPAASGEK
- Method: Agonist activity at human TRPV1 channel expressed in human HEK293 cells assessed as elevation in intracellular calcium flux
pEC50: −log10 of the molar value.

{"columns": ["Structure Smiles String", "pEC50"],
 "data": [
  ["COC(=O)Cn1nnc(CNC(=O)c2ccc(-c3ccccc3)cc2)n1", "< 4.00"],
  ["CC(=O)Cn1nnnc1CNC(=O)c1ccc(-c2ccccc2)cc1", "< 4.00"],
  ["COC(=O)Cn1nnnc1CNC(=O)c1ccc(-c2ccccc2)cc1", 4.53],
  ["COC(=O)Cn1nnc(Cc2ccc(-c3ccccc3)cc2)n1", "< 4.00"],
  ["CC(=O)Cn1nnc(Cc2ccc(-c3ccccc3)cc2)n1", "< 4.00"],
  ["N#CCn1nnnc1CNC(=O)c1ccc(-c2ccccc2)cc1", "< 4.00"],
  ["CC(C)Cn1nnnc1CNC(=O)c1ccc(-c2ccccc2)cc1", 4.82],
  ["CN(C)C(=O)Cn1nnc(CNC(=O)c2ccc(-c3ccccc3)cc2)n1", "< 4.00"],
  ["N#CCn1nnc(Cc2ccc(-c3ccccc3)cc2)n1", "< 4.00"],
  ["N#CCn1nnnc1Cc1ccc(-c2ccccc2)cc1", "< 4.00"],
  ["CC(=O)Cn1nnnc1Cc1ccc(-c2ccccc2)cc1", "< 4.00"],
  ["CC(C)Cn1nnnc1Cc1ccc(-c2ccccc2)cc1", "< 4.00"],
  ["CN(C)C(=O)Cn1nnnc1Cc1ccc(-c2ccccc2)cc1", "< 4.00"],
  ["CC(C)Cn1nnc(CNC(=O)c2ccc(-c3ccccc3)cc2)n1", 4.27],
  ["COC(=O)Cn1nnnc1Cc1ccc(-c2ccccc2)cc1", "< 4.00"],
  ["N#CCn1nnc(CNC(=O)c2ccc(-c3ccccc3)cc2)n1", "< 4.00"],
  ["CC(=O)Cn1nnc(CNC(=O)c2ccc(-c3ccccc3)cc2)n1", "< 4.00"],
  ["CC(C)Cn1nnc(Cc2ccc(-c3ccccc3)cc2)n1", 5.00],
  ["CN(C)C(=O)Cn1nnc(Cc2ccc(-c3ccccc3)cc2)n1", "< 4.00"]
]}
